Measured values drawn from patent US20260374766A1 for this set.

- measured_on: p53 Y220C (Homo sapiens, UniProt P04637, Y220C)
- experimental_details: Luciferase Reporter Assay (Luc), p53 response element, NClH1299 cells with inducible p53 Y220C
- Assay type: cell-based
- setup_conditions: luciferase reporter, NClH1299 inducible p53 Y220C, 6 hour; 10 uM tool compound as positive control
Collected Emax values appear next to each entry.

Below, 5 molecules whose answers are already recorded.
[[record]]
structure_smiles_string = "CNC(=O)c1ccc(NCC#Cc2nc3c(N[C@@H]4CCNC[C@@H]4F)cccn3c2SC(F)(F)F)c(OC)c1"
meas_value = "80 to 90%"

[[record]]
structure_smiles_string = "CNC(=O)c1cnc(OC)c(NCC#Cc2nc3c(N[C@@H]4CCN(C)C[C@@H]4F)cccn3c2SC(F)(F)F)n1"
meas_value = "80 to 90%"

[[record]]
structure_smiles_string = "CNC(=O)c1ccc(OC)c(NCC#Cc2nc3c(N[C@@H]4CCNC[C@@H]4F)cccn3c2SC(F)(F)F)n1"
meas_value = "70 to 80%"

[[record]]
structure_smiles_string = "CNC(=O)c1ccc(NCC#Cc2nc3c(N[C@@H]4CCN(C)C[C@@H]4F)cccn3c2CC(F)(F)F)c(OC)c1"
meas_value = "70 to 80%"

[[record]]
structure_smiles_string = "C=C(F)C(=O)Nc1cc(NC2CCN(C)CC2)c2nc(C#CCNc3ccc(C(=O)NC)cc3OC)c(CC(F)(F)F)n2c1"
meas_value = "< 70%"


Need Emax, item COc1cc(S(C)(=O)=O)ccc1NCC#Cc1nc2c(NC3CCOCC3)cccn2c1CC(F)(F)F
70 to 80%

Need Emax, item CNC(=O)c1ccc(NCC#Cc2nc3c(N[C@@H]4CCN(C)C[C@@H]4F)cccn3c2CC(F)(F)F)c(OCC(F)(F)F)c1
80 to 90%

* * *

- measured_on: p53 Y220C (Homo sapiens, UniProt P04637, Y220C)
- experimental_details: Luciferase Reporter Assay (Luc), p53 response element, NClH1299 cells with inducible p53 Y220C
- Format: cell-based
- setup_conditions: luciferase reporter, NClH1299 inducible p53 Y220C, 6 hour; read-out: Luc P53 Y220C AC50
- Experimental: Luciferase Reporter Assay Protocol The cells were then used for p53 reporter assay. 5,000 cells were seeded in each well of 384 plate and cultured in 0.5 ug/mL doxycycline (D3072; Sigma) containing medium for 24 hours before compound treatment. […] The luciferase activity was immediately measured with PheraStar microplate reader.
property_label: AC50

[[record]]
structure_smiles_string = "CNC(=O)c1cc(OC)c(NCC#Cc2nc3c(N[C@@H]4CCN(C)C[C@@H]4F)cccn3c2CC(F)(F)F)cc1Cl"
measured_on = "p53 Y220C (Homo sapiens, UniProt P04637, Y220C)"
meas_value = "0.75 to 1.5 µM"

[[record]]
structure_smiles_string = "CNC(=O)c1ccc(OC)c(NCC#Cc2cc3c(N[C@@H]4CCN(C)C[C@@H]4F)nccn3c2SC(F)(F)F)n1"
measured_on = "p53 Y220C (Homo sapiens, UniProt P04637, Y220C)"
meas_value = "< 0.75 µM"


Here's the next entry for you.
Need AC50, item CNC(=O)c1ccc(NCC#Cc2nn3c(N[C@@H]4CCN(C)C[C@@H]4F)nccc3c2SC(F)(F)F)c(OC)c1
< 0.75 µM
